system-name: T1, CRBN, Q96SW2;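 further: pooled lentiviral library of zinc finger degron-EGFP fusions in mCherry-positive Jurkat cells, FACS-sorted after compound exposure, with degron abundance counted by next-generation sequencing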
T1 chain: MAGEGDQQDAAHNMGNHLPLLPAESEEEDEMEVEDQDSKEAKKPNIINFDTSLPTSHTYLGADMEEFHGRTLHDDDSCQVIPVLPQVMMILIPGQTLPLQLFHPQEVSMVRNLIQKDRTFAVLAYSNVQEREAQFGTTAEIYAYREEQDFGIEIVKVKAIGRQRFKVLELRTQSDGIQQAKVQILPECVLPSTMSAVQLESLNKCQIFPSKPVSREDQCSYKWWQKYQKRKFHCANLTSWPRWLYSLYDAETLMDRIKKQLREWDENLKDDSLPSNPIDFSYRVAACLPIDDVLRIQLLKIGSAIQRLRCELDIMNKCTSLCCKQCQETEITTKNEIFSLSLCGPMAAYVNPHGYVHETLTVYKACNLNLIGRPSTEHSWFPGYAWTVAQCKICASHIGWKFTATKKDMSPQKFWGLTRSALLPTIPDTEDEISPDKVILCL
experiment-summary: log2 fold change of degron read counts, EGFP-low vs EGFP+ sorted cells (limma voom), compound-induced degradation; higher = more compound-induced degradation of the degron-EGFP fusion; degrons are variants of IKZF1/3 zinc finger 2; compound dose not given here
reported-conditions: Jurkat; 18 h; compound: compound 33 (diphenyl IMiD analogue)
In all, about 8,300 sequences were measured (“log2 fold change of degron read counts, EGFP-low vs EGFP+ sorted cells (limma voom), compound-induced degradation”: median about -1.1, highest 2% from about 3.2 on). The full list was thinned out, with the highest values kept by preference.
// reported log2 fold change of degron read counts for each item listed
Could you respond with only the numeric value?

residue_string="FWCDVCGAFFTQKGNLLRHIKL [46F_47W_49D_50V_52G_53A_54F_55F_67L_, Q9UKT9]" data_value=-0.00384
residue_string="FVCEICGARFTQKGNLLRHIKL [46F_47V_49E_50I_52G_53A_54R_55F_67L_, Q9UKT9]" data_value=1.02
residue_string="FECDQCGAYFTQKGNLLRHIKL [46F_47E_49D_50Q_52G_53A_54Y_55F_67L_, Q9UKT9]" data_value=-2.13

// switching to the query sequence
State its log2 fold change of degron read counts: FMCEICGARFTQKGNLLRHIKL [46F_47M_49E_50I_52G_53A_54R_55F_67L_, Q9UKT9]
1.34
